test system: U-251; assay: NCI tumour cell line growth inhibition, 48 h
Calls of active or inactive are those of the source. Rule as the data show it: active = GI50 up to about 1.1 µM and inactive = higher.
Log the outcome using a class from active, inactive

Below are worked cases with known answers.
N/C(CCSCCSCC/C(N)=N\O)=N\O ... inactive
NCC(=O)Nc1ccc(Cl)cc1C(=O)c1ccc[nH]1 ... inactive
O=C1/C(=C/c2ccc(Cl)cc2)CCCc2ccccc21 ... inactive
Cc1cc(C)c2c(c1C)CN1CN2Cc2c(C)c(C)cc(C)c21 ... inactive
OC(C/C(=N\N1CCCCC1)c1cccs1)(C(F)(F)F)C(F)(F)F ... inactive
COC1C=COC2(C)Oc3c(C)c(O)c4c(O)c(c(C5SCCS5)c(O)c4c3C2=O)NC(=O)C(C)=C/C=C\C(C)C2OC(C)(C)OC(C2C)C(C)C(OC(C)=O)C1C (centres undefined) ... inactive
Cc1ccc(C(=O)O)cc1NC(=O)c1cc(/C=C/c2ccccc2)[nH]c(=S)n1 ... inactive
CC(C)(CN)CN ... inactive
COC(=O)C1(C)C=CC(=O)C2(C)C1C(O)C1OC3CC(c4ccoc4)C(C)=C3C1(C)C2CC(=O)O (centres undefined) ... inactive
O=c1[nH]/c(=C/c2ccc(OCc3ccccc3)cn2)c(=O)[nH]/c1=C/c1ccc(Cl)cc1 ... inactive

Enquiry: Per the assay record, what outcome was assigned to CCOC(=O)Nc1[nH]cc(-c2ccccc2)c1C#N ?
Return: inactive

Enquiry: Per the assay record, what outcome was assigned to COc1cc2c(c(OC)c1OC)-c1ccc(=O)c(O)cc1[C@@H](NC(C)=O)CC2 [COLCHICEINE] ?
Return: inactive

Enquiry: Per the assay record, what outcome was assigned to O=c1[nH]c2c(S)nc(O)nc2n1-c1ccccc1 ?
Return: inactive

Enquiry: Per the assay record, what outcome was assigned to C[C@]12CC(c3ccccc3O1)C(C#N)C(=O)N2 (some centres undefined) ?
Return: inactive

Enquiry: Per the assay record, what outcome was assigned to C[C@]12CC[C@H](OCCC#N)CC1=CC[C@@H]1C2CC[C@]2(C)/C(=N/OCCC#N)CCC12 (some centres undefined) ?
Return: inactive

Enquiry: Per the assay record, what outcome was assigned to NC(=O)C(c1ccccc1)N1OC2C(=O)N(Cc3ccccc3)C(=O)C2C1c1cccc(Oc2ccc(Cl)cc2)c1 (centres undefined) ?
Return: inactive

Enquiry: Per the assay record, what outcome was assigned to COc1ccc(Br)c(/C=N\c2cccc3cc(OC)c(OC)cc23)c1 ?
Return: inactive

Enquiry: Per the assay record, what outcome was assigned to CC(C)(C)CN1[C@@H]2CCCC[C@H]2N(CC(C)(C)C)P1(=O)Cc1ccccc1 ?
Return: inactive

Enquiry: Per the assay record, what outcome was assigned to CC1=C2c3ccccc3N(S(=O)(=O)c3ccccc3)[C@H]2[C@H](C(=O)N2C3CC4CC[C@@]3(CS2(=O)=O)C4(C)C)CC1 (some centres undefined) ?
Return: inactive

Enquiry: Per the assay record, what outcome was assigned to C=CCC1(CN(C)C)CC/C(=C\c2ccc(Cl)cc2)C1=O (centres undefined) ?
Return: inactive

Enquiry: Per the assay record, what outcome was assigned to COc1ccc(-c2oc3c(CC(=O)O)cccc3c(=O)c2OC)cc1 ?
Return: inactive

Enquiry: Per the assay record, what outcome was assigned to C=C1C(C(O)C[C@H](C)C2O[C@@]3(CCCCO3)CCC2C)O[C@@H]2CCC3(CCC(/C=C/[C@@H](C)C4CC(C)=CC5(O4)O[C@H](C[C@](C)(O)C(=O)O)CCC5O)O3)OC2[C@@H]1O (some centres undefined) ?
Return: active

Enquiry: Per the assay record, what outcome was assigned to O=C(CCc1cc(O)ccc1O)OCCc1ccccc1 ?
Return: inactive

Reference source for all entries: ChEMBL document CHEMBL1201862
